# key: entry, value: protein stability index
B1: PCDHGA10 (parent)
chain: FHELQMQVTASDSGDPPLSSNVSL

# Variants of: B1
# Method summary: protein stability index of a GFP-peptide fusion (GPS, HEK-293T) (PSI 1-6); higher = more stable;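 further: lentivirally expressed fusions sorted by FACS into six bins by GFP to DsRed ratio, PSI derived from sequencing read proportions per bin multiplied by bin number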
# Experimental context: c terminus: a fixed tail appended
Measured quantity: protein stability index

INSERT INTO measurements (mutations, reading) VALUES
  ('H2A', 3.07),
  ('T9Y', 1.86),
  ('Q5D', 3.32),
  ('D15I', 1.93),
  ('F1A', 4.58),
  ('D15S', 1.67),
  ('S19Y', 1.94),
  ('T9M', 2.18),
  ('S11F', 1.55),
  ('A10W', 1.86),
  ('D15F', 1.4),
  ('F1W', 3.81),
  ('V22P', 2.34),
  ('G14M', 2.09),
  ('A10P', 2.88),
  ('Q7L', 1.89),
  ('H2Y', 2.31),
  ('S13V', 1.67),
  ('Q5I', 1.82),
  ('N21A', 2.25),
  ('L24Y', 2.31),
  ('Q7P', 1.71),
  ('D15Q', 2.04),
  ('D15A', 2.08),
  ('V22S', 3.11),
  ('F1Q', 4.62),
  ('S13I', 1.66),
  ('D15C', 1.79),
  ('P16T', 1.99),
  ('E3S', 1.59),
  ('S19I', 1.66),
  ('P16W', 1.69),
  ('S23E', 3.33),
  ('S23W', 2.08),
  ('Q7T', 2.33),
  ('H2S', 3.83),
  ('L18R', 2.42),
  ('S11V', 1.93),
  ('L24C', 2.84),
  ('S19D', 3.07),
  ('A10G', 2.24),
  ('L18C', 2.39),
  ('S23T', 2.18),
  ('V8E', 3.94),
  ('A10F', 1.97),
  ('H2L', 2.51),
  ('D15M', 1.91),
  ('P17L', 1.16),
  ('P16S', 2.04),
  ('P17Q', 1.93),
  ('S23P', 2.82),
  ('D12T', 1.86),
  ('L4A', 2.76),
  ('H2W', 1.78),
  ('S19M', 2.36),
  ('T9Q', 2.73),
  ('V8T', 2.81),
  ('V22Q', 2.43),
  ('S11R', 1.96),
  ('L4K', 2.73),
  ('S13C', 2.43),
  ('L24R', 2.75),
  ('L18W', 2.3),
  ('Q7G', 2.78),
  ('S19L', 1.85),
  ('L4G', 2.67),
  ('Q5F', 3.27),
  ('D15N', 2.48),
  ('H2K', 3.84),
  ('D12L', 1.73),
  ('S19R', 2.02),
  ('D15T', 1.8),
  ('E3P', 1.97),
  ('D12E', 2.23),
  ('P16E', 2.54),
  ('V8P', 3.33),
  ('P16A', 1.74),
  ('A10N', 1.99),
  ('L24I', 1.83),
  ('S13T', 1.75),
  ('P16L', 1.57),
  ('D15G', 1.97),
  ('D12R', 1.82),
  ('T9K', 2.65),
  ('P17W', 1.48),
  ('F1C', 3.83),
  ('S11N', 2.03),
  ('D12S', 2.15),
  ('L24A', 3.29),
  ('S19T', 2.02),
  ('Q7D', 3.06);
